Test: Toxicokinetics of PNA5 in Beagle dog plasma
Conditions: both, Beagle, dog, plasma, sc, 1 mg/kg/day, Tmax, dogs, plasma, s.c. 1 mg/kg/day, day 1, sexes combined, table: average (range); text b115: median
Peptide text beside a SMILES is read from it. * marks the point of attachment. βGlc = OC[C@H]1O[C@@H](*)[C@H](O)[C@@H](O)[C@@H]1O
parameter_measured: Tmax (min)
Just the number please, in min, no unit attached.

According to the records, this compound CC[C@H](C)[C@H](NC(=O)[C@H](Cc1ccc(O)cc1)NC(=O)[C@@H](NC(=O)[C@H](CCCNC(=N)N)NC(=O)[C@@H](N)CC(=O)O)C(C)C)C(=O)N[C@@H](Cc1c[nH]cn1)C(=O)N[C@@H](CO[C@@H]1O[C@H](CO)[C@@H](O)[C@H](O)[C@H]1O)C(N)=O [PNA5, Ang-1–6-Ser-O-Glu-NH2] (H-DRVYIHS(βGlc)-NH2) displays Tmax of 10

====

Assay: Toxicokinetics of PNA5 in Beagle dog plasma
Details: female, Beagle, dog, plasma, sc, 20 mg/kg/day, mean AUC0–2hr, females, dogs, females, 20 mg/kg/day (NOAEL), day 28
Peptide text beside a SMILES is read from it. * marks the point of attachment. βGlc = OC[C@H]1O[C@@H](*)[C@H](O)[C@@H](O)[C@@H]1O
parameter_measured: AUC(0-t) (ng·h/mL)
Just the number please, in ng·h/mL, no unit attached.

According to the records, this compound CC[C@H](C)[C@H](NC(=O)[C@H](Cc1ccc(O)cc1)NC(=O)[C@@H](NC(=O)[C@H](CCCNC(=N)N)NC(=O)[C@@H](N)CC(=O)O)C(C)C)C(=O)N[C@@H](Cc1c[nH]cn1)C(=O)N[C@@H](CO[C@@H]1O[C@H](CO)[C@@H](O)[C@H](O)[C@H]1O)C(N)=O [PNA5, Ang-1–6-Ser-O-Glu-NH2] (H-DRVYIHS(βGlc)-NH2) displays AUC(0-t) of 1150

====

Test: Toxicokinetics of PNA5 in Sprague Dawley rat plasma
Conditions: both, Sprague Dawley, rat, plasma, sc, 1 mg/kg/day, AUC0–2, rats, plasma, s.c. 1 mg/kg/day, day 28, sexes combined, mean ± SD, n = 6, linear trapezoidal
Peptide text beside a SMILES is read from it. * marks the point of attachment. βGlc = OC[C@H]1O[C@@H](*)[C@H](O)[C@@H](O)[C@@H]1O
parameter_measured: AUC(0-t) (ng·h/mL)
Just the number please, in ng·h/mL, no unit attached.

According to the records, this compound CC[C@H](C)[C@H](NC(=O)[C@H](Cc1ccc(O)cc1)NC(=O)[C@@H](NC(=O)[C@H](CCCNC(=N)N)NC(=O)[C@@H](N)CC(=O)O)C(C)C)C(=O)N[C@@H](Cc1c[nH]cn1)C(=O)N[C@@H](CO[C@@H]1O[C@H](CO)[C@@H](O)[C@H](O)[C@H]1O)C(N)=O [PNA5, Ang-1–6-Ser-O-Glu-NH2] (H-DRVYIHS(βGlc)-NH2) displays AUC(0-t) of 0.464

====

Assay: Toxicokinetics of PNA5 in Beagle dog plasma
Conditions: male, Beagle, dog, plasma, sc, 20 mg/kg/day, mean Cmax, males, dogs, males, 20 mg/kg/day (NOAEL), day 28
Peptide text beside a SMILES is read from it. * marks the point of attachment. βGlc = OC[C@H]1O[C@@H](*)[C@H](O)[C@@H](O)[C@@H]1O
parameter_measured: Cmax (ng/mL)
Just the number please, in ng/mL, no unit attached.

According to the records, this compound CC[C@H](C)[C@H](NC(=O)[C@H](Cc1ccc(O)cc1)NC(=O)[C@@H](NC(=O)[C@H](CCCNC(=N)N)NC(=O)[C@@H](N)CC(=O)O)C(C)C)C(=O)N[C@@H](Cc1c[nH]cn1)C(=O)N[C@@H](CO[C@@H]1O[C@H](CO)[C@@H](O)[C@H](O)[C@H]1O)C(N)=O [PNA5, Ang-1–6-Ser-O-Glu-NH2] (H-DRVYIHS(βGlc)-NH2) displays Cmax of 1100

====

Assay: Toxicokinetics of PNA5 in Sprague Dawley rat plasma
Conditions: both, Sprague Dawley, rat, plasma, sc, 5 mg/kg/day, Tmax, rats, plasma, s.c. 5 mg/kg/day, day 1, sexes combined, average
Peptide text beside a SMILES is read from it. * marks the point of attachment. βGlc = OC[C@H]1O[C@@H](*)[C@H](O)[C@@H](O)[C@@H]1O
parameter_measured: Tmax (min)
Just the number please, in min, no unit attached.

According to the records, this compound CC[C@H](C)[C@H](NC(=O)[C@H](Cc1ccc(O)cc1)NC(=O)[C@@H](NC(=O)[C@H](CCCNC(=N)N)NC(=O)[C@@H](N)CC(=O)O)C(C)C)C(=O)N[C@@H](Cc1c[nH]cn1)C(=O)N[C@@H](CO[C@@H]1O[C@H](CO)[C@@H](O)[C@H](O)[C@H]1O)C(N)=O [PNA5, Ang-1–6-Ser-O-Glu-NH2] (H-DRVYIHS(βGlc)-NH2) displays Tmax of 4.98

====

Test: Toxicokinetics of PNA5 in Sprague Dawley rat plasma
Conditions: both, Sprague Dawley, rat, plasma, sc, 5 mg/kg/day, Half-life, rats, plasma, s.c. 5 mg/kg/day, day 1, sexes combined, mean ± SD, n = 6, Ln(2)/Kel
Peptide text beside a SMILES is read from it. * marks the point of attachment. βGlc = OC[C@H]1O[C@@H](*)[C@H](O)[C@@H](O)[C@@H]1O
parameter_measured: half-life (min)
Just the number please, in min, no unit attached.

According to the records, this molecule CC[C@H](C)[C@H](NC(=O)[C@H](Cc1ccc(O)cc1)NC(=O)[C@@H](NC(=O)[C@H](CCCNC(=N)N)NC(=O)[C@@H](N)CC(=O)O)C(C)C)C(=O)N[C@@H](Cc1c[nH]cn1)C(=O)N[C@@H](CO[C@@H]1O[C@H](CO)[C@@H](O)[C@H](O)[C@H]1O)C(N)=O [PNA5, Ang-1–6-Ser-O-Glu-NH2] (H-DRVYIHS(βGlc)-NH2) displays half-life of 25.2

====

Assay: Toxicokinetics of PNA5 in Sprague Dawley rat plasma
Details: both, Sprague Dawley, rat, plasma, sc, 40 mg/kg/day, Cmax, Sprague Dawley rats, plasma, s.c. once daily 40 mg/kg/day, day 28, sexes combined, mean ± SD, n = 6, UHPLC-MS/MS, noncompartmental
Peptide text beside a SMILES is read from it. * marks the point of attachment. βGlc = OC[C@H]1O[C@@H](*)[C@H](O)[C@@H](O)[C@@H]1O
parameter_measured: Cmax (ng/mL)
Just the number please, in ng/mL, no unit attached.

According to the records, this molecule CC[C@H](C)[C@H](NC(=O)[C@H](Cc1ccc(O)cc1)NC(=O)[C@@H](NC(=O)[C@H](CCCNC(=N)N)NC(=O)[C@@H](N)CC(=O)O)C(C)C)C(=O)N[C@@H](Cc1c[nH]cn1)C(=O)N[C@@H](CO[C@@H]1O[C@H](CO)[C@@H](O)[C@H](O)[C@H]1O)C(N)=O [PNA5, Ang-1–6-Ser-O-Glu-NH2] (H-DRVYIHS(βGlc)-NH2) displays Cmax of 62.5

====

Assay: Toxicokinetics of PNA5 in Beagle dog plasma
Conditions: both, Beagle, dog, plasma, sc, 1 mg/kg/day, AUC0–2, dogs, plasma, s.c. 1 mg/kg/day, day 1, sexes combined, mean ± SD, n = 6, linear trapezoidal
Peptide text beside a SMILES is read from it. * marks the point of attachment. βGlc = OC[C@H]1O[C@@H](*)[C@H](O)[C@@H](O)[C@@H]1O
parameter_measured: AUC(0-t)
# output: number + unit

According to the records, this compound CC[C@H](C)[C@H](NC(=O)[C@H](Cc1ccc(O)cc1)NC(=O)[C@@H](NC(=O)[C@H](CCCNC(=N)N)NC(=O)[C@@H](N)CC(=O)O)C(C)C)C(=O)N[C@@H](Cc1c[nH]cn1)C(=O)N[C@@H](CO[C@@H]1O[C@H](CO)[C@@H](O)[C@H](O)[C@H]1O)C(N)=O [PNA5, Ang-1–6-Ser-O-Glu-NH2] (H-DRVYIHS(βGlc)-NH2) displays AUC(0-t) of 63.5 ng·h/mL

====

Experiment: Toxicokinetics of PNA5 in Beagle dog plasma
Settings: both, Beagle, dog, plasma, sc, 5 mg/kg/day, Cmax, Beagle dogs, plasma, s.c. once daily 5 mg/kg/day, day 28, sexes combined, mean ± SD, n = 6, UHPLC-MS/MS, noncompartmental
Peptide text beside a SMILES is read from it. * marks the point of attachment. βGlc = OC[C@H]1O[C@@H](*)[C@H](O)[C@@H](O)[C@@H]1O
parameter_measured: Cmax (ng/mL)
Just the number please, in ng/mL, no unit attached.

According to the records, this compound CC[C@H](C)[C@H](NC(=O)[C@H](Cc1ccc(O)cc1)NC(=O)[C@@H](NC(=O)[C@H](CCCNC(=N)N)NC(=O)[C@@H](N)CC(=O)O)C(C)C)C(=O)N[C@@H](Cc1c[nH]cn1)C(=O)N[C@@H](CO[C@@H]1O[C@H](CO)[C@@H](O)[C@H](O)[C@H]1O)C(N)=O [PNA5, Ang-1–6-Ser-O-Glu-NH2] (H-DRVYIHS(βGlc)-NH2) displays Cmax of 444
